Target: T1, zebrafish Tac3ra (tac3 receptor a, NKB receptor) (zebrafish)
T1 chain: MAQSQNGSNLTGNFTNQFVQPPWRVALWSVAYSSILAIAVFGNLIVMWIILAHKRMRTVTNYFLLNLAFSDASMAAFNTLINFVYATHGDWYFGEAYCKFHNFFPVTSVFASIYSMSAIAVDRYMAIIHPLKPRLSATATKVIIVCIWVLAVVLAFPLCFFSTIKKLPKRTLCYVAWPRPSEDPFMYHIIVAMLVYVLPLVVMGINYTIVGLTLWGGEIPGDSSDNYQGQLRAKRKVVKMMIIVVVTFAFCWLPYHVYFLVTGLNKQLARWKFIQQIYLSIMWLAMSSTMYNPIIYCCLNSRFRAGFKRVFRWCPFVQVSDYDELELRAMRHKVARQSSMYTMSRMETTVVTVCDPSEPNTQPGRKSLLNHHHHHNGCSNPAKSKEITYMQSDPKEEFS
Experiment: cell-based or functional assay
*1 amine or outer side, *2 acyl side, *3 side chain or, on linkers, in order; H or OH if unused. Where no end group is shown, it is not given here. [ ]: non-standard residue; d: D form. NMeF = CN[C@@H](Cc1ccccc1)C(=O)O; Suc = O=C(CCC(=O)[*:2])[*:1]
observation-type: EC50, CRE-Luc reporter (PKA activation), transfected COS-7 cells (nM)

> print(dat)
                                     binder  quantity.unit  measured.number
1  STGINREAHLPFRPNMNDIFVGLL-NH2 [Zebrafish Tac3b peptide, neurokinin Bb (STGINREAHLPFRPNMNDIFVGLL-NH2)]             nM              237
2  DMHDFFVGLM-NH2 [human NKB (neurokinin B)]             nM             12.9
3  EMHDIFVGLM-NH2 [Zebrafish Tac3a peptide, neurokinin Ba (EMHDIFVGLM-NH2)]             nM             5.75

[P] Suc-DF[NMeF]GLM-NH2 [Senktide (Succ-Asp-Phe-N(Me)Phe-Gly-Leu-Met-NH2)]
[Q] YNDIDYDSFVGLM-NH2 [Zebrafish Tac3f peptide, neurokinin F (YNDIDYDSFVGLM-NH2)]
Which entry has a larger number for EC50, CRE-Luc reporter (PKA activation), transfected COS-7 cells, P or Q ? Provide the label of your selected option as the answer.
P
(P: 49 nM, Q: 4.94 nM)
